Value source: patent US20180105569A1

Consider the following binders; for each one, report its EC50 at GLP-1 Receptor (cAMP luciferase reporter, HEK293).
- tgt: GLP-1 receptor (UniProt P43220 24-463, limits assumed)
- experimental-protocol: cell-based or functional assay
Numbered stars: 1 amine (or outer) side, 2 acyl side, 3 side chain; on linkers, the order of the positions; unused ones are H or OH. Square brackets hold non-standard residues; d marks the D form. Side chains are listed from the residue outwards. Ends that are not written are not given here. * marks the point of attachment. γGlu = O=C(O)[C@H](CCC(=O)[*:2])N[*:1]; Desaminotyrosyl = O=C(CCc1ccc(O)cc1)*; Palmitoyl = CCCCCCCCCCCCCCCC(=O)*; dthioAla = not defined here; thioAla = not defined here; Sar = CNCC(=O)O
Return type: number; implicit unit pM.

Reported EC50 at GLP-1 Receptor (cAMP luciferase reporter, HEK293), binder [dH]GQGTFTSDK([γGlu-Palmitoyl])SKYLDERAAQDFVQWLLEGGPSSGAPPPS-NH2 [peptide of SEQ ID NO: 23] : ____
3

Suppose we examine the binder Ac-[dthioAla]AQGTFTSDK([γGlu-Palmitoyl])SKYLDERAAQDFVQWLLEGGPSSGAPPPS-NH2 (reading uncertain) [peptide of SEQ ID NO: 17] ; what EC50 at GLP-1 Receptor (cAMP luciferase reporter, HEK293) value has been reported?
5

Dear colleague, I am looking for the recorded EC50 at GLP-1 Receptor (cAMP luciferase reporter, HEK293) of the following binder: [Desaminotyrosyl]AQGTFTSDK([γGlu-Palmitoyl])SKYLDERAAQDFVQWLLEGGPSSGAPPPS-NH2 [peptide of SEQ ID NO: 11]
2

Please report the recorded EC50 at GLP-1 Receptor (cAMP luciferase reporter, HEK293) for H[Sar]QGTFTSDK([γGlu-Palmitoyl])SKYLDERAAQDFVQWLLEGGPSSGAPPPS-NH2 [peptide of SEQ ID NO: 28] .
2

Sample [thioAla]GQGTFTSDK([γGlu-Palmitoyl])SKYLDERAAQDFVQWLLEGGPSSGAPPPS-NH2 (reading uncertain) [peptide of SEQ ID NO: 29] — what was its EC50 at GLP-1 Receptor (cAMP luciferase reporter, HEK293)?
7

I would be grateful if you could share the reported EC50 at GLP-1 Receptor (cAMP luciferase reporter, HEK293) for Ac-[thioAla]AQGTFTSDK([γGlu-Palmitoyl])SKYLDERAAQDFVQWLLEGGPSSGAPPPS-NH2 (reading uncertain) [peptide of SEQ ID NO: 21] .
26
